# Test system: Akt phosphorylation induced by IGF-1R in HT-29 cells
# Procedure text: Western blot analysis of Akt phosphorylation induced by IGF-1R
# Assay type: cell-based, Human
# Setup conditions: 100 nM compound 2 h, then IGF-1 10 ng/mL 10 min; HT-29
Threshold 0.02. phosphorylated AKT levels normalized to actin levels (pAKT/actin) below it: True. phosphorylated AKT levels normalized to actin levels (pAKT/actin) at it or above: False.

Known results for molecules:
O=C(Nc1ccc(F)nc1)C1CCCN1c1nc2c(c(Nc3cc(C4CCCC4)[nH]n3)n1)CCC2 (single isomer, unassigned) [Compound 4b] | False
CC(C)c1cc(Nc2nc(N3CCCC3C(=O)Nc3ccc(F)nc3)nc3c2CCCC3)n[nH]1 (single isomer, unassigned) [Compound 13b] | True

For this molecule, is phosphorylated AKT levels normalized to actin levels (pAKT/actin) lower than 0.02? O=C(Nc1ccc(F)nc1)C1CCCN1c1nc2c(c(Nc3cc(C4CCCC4)[nH]n3)n1)CCCC2 (single isomer, unassigned) [Compound 15b]
False

Is phosphorylated AKT levels normalized to actin levels (pAKT/actin) of O=C(Nc1ccc(F)nc1)C1CCCN1c1nc2c(c(Nc3cc(C4CC4)[nH]n3)n1)CCCC2 (single isomer, unassigned) [Compound 14a] strictly below 0.02?
False

Is it true that phosphorylated AKT levels normalized to actin levels (pAKT/actin) reported for O=C(Nc1cnccn1)C1CCCN1c1nc2c(c(Nc3cc(C4CC4)[nH]n3)n1)CCC2 (single isomer, unassigned) [Compound 6b] is less than 0.02?
True

API: query returns whether the molecule falls strictly under 0.02 in phosphorylated AKT levels normalized to actin levels (pAKT/actin). Query: O=C(Nc1ccc(F)nc1)C1CCCN1c1nc2c(c(Nc3cc(C4CC4)[nH]n3)n1)CCCC2 (single isomer, unassigned) [Compound 14b]
True

# TODO verify phosphorylated AKT levels normalized to actin levels (pAKT/actin) < 0.02 strictly for this molecule: CC(C)c1cc(Nc2nc(N3CCCC3C(=O)Nc3ccc(F)nc3)nc3c2CCCC3)n[nH]1 (single isomer, unassigned) [Compound 13a]
False

Dear reviewer, please state whether O=C(Nc1ccc(F)nc1)C1CCCCN1c1nc2c(c(Nc3cc(C4CC4)[nH]n3)n1)CCC2 (single isomer, unassigned) [Compound 9b] has phosphorylated AKT levels normalized to actin levels (pAKT/actin) strictly beneath 0.02.
False

Consider the molecule O=C(Nc1ccc(F)nc1)C1CCN1c1nc2c(c(Nc3cc(C4CC4)[nH]n3)n1)CCC2 (racemic) . Is its phosphorylated AKT levels normalized to actin levels (pAKT/actin) strictly less than 0.02?
True

Quick check: phosphorylated AKT levels normalized to actin levels (pAKT/actin) of CC(C)c1cc(Nc2nc(N3CCCCC3C(=O)Nc3ccc(F)nc3)nc3c2CCC3)n[nH]1 (single isomer, unassigned) [Compound 16a] under 0.02?
False

Decide: phosphorylated AKT levels normalized to actin levels (pAKT/actin) of O=C(Nc1ccc(F)nc1)C1C(O)CCN1c1nc2c(c(Nc3cc(C4CC4)[nH]n3)n1)CCC2 (single isomer, unassigned) [Compound 11b] strictly below 0.02?
False

Consider O=C(Nc1ccc(F)nc1)C1CCCN1c1nc2c(c(Nc3cc(C4CCCC4)[nH]n3)n1)CCC2 (racemic) [Compound 4] . Does its phosphorylated AKT levels normalized to actin levels (pAKT/actin) lie strictly below 0.02?
False

Record O=C(Nc1ccc(F)nc1)C1CCCCN1c1nc2c(c(Nc3cc(C4CC4)[nH]n3)n1)CCC2 (racemic) [Compound 9] : is its phosphorylated AKT levels normalized to actin levels (pAKT/actin) strictly below 0.02?
True

Confirm or reject: phosphorylated AKT levels normalized to actin levels (pAKT/actin) of O=C(Nc1ccc(F)nc1)C1CCCN1c1nc2c(c(Nc3cc(C4CCCC4)[nH]n3)n1)CCCC2 (single isomer, unassigned) [Compound 15a] lies strictly below 0.02
False

Hello, is phosphorylated AKT levels normalized to actin levels (pAKT/actin) of the following molecule strictly smaller than 0.02? O=C(Nc1ccc(F)nc1)C1CCCN1c1nc2c(c(Nc3cc(C4CC4)[nH]n3)n1)CCC2 (racemic) [Compound 2]
True

Answer whether the molecule O=C(Nc1cncnc1)C1CCCN1c1nc2c(c(Nc3cc(C4CC4)[nH]n3)n1)CCC2 (racemic) has phosphorylated AKT levels normalized to actin levels (pAKT/actin) strictly less than 0.02
False

Strictly below 0.02: is that where phosphorylated AKT levels normalized to actin levels (pAKT/actin) of O=C(Nc1cnccn1)C1CCCN1c1nc2c(c(Nc3cc(C4CC4)[nH]n3)n1)CCC2 (racemic) [Compound 6] sits?
True

Is phosphorylated AKT levels normalized to actin levels (pAKT/actin) of O=C(Nc1ccc(F)nc1)C1CC(O)CN1c1nc2c(c(Nc3cc(C4CC4)[nH]n3)n1)CCC2 (single isomer, unassigned) [Compound 10a] strictly below 0.02?
True

Please determine if CC(C)c1cc(Nc2nc(N3CCCCC3C(=O)Nc3ccc(F)nc3)nc3c2CCC3)n[nH]1 (single isomer, unassigned) [Compound 16b] is below 0.02 in terms of phosphorylated AKT levels normalized to actin levels (pAKT/actin).
True

Quick check: phosphorylated AKT levels normalized to actin levels (pAKT/actin) of CC1(O)CC(c2nc(-c3ccc4ccc(-c5ccccc5)nc4c3)c3c(N)nccn23)C1 (stereo not shown) [OSI-906, reference compound] under 0.02?
False

Does the reported phosphorylated AKT levels normalized to actin levels (pAKT/actin) of the following molecule sit strictly below 0.02? O=C(Nc1ccc(F)nc1)C1CCCN1c1nc2c(c(Nc3cc(C4CC4)[nH]n3)n1)CCC2 (single isomer, unassigned) [Compound 2b]
False
